Assay type: cell-based, Escherichia coli
Experimental: To transform the plasmids to be tested, an AAD12-expressing plasmid and a blank control plasmid pET15b were respectively transformed into the protein expression E. coli BL21(DE3) strains. A monoclone was selected and inoculated in a 10 ml centrifuge tube with 3 ml LB medium, and cultivated at 37° C., 200 rpm for 6-8 hours. […] The temperature was switched to 28° C. and the cultivation continued overnight. […]
testReadout: Chromogenic reaction of degrading herbicides in bacteria: MCPA

{"molecule": "QYD51: AAD-like enzyme, SEQ ID NO. 101 (protein, Synthetic polypeptide, QYD51, D51) MARTLDIEPIDATFGAVVRGIKVAEVDDETFRALYDAWLEYALLIFPDQHLKRDQQIAFAKRFGPLEFEMTAISNVRSDGTLRLEKDNDDVMKVLKGNMGWHHDSTYMPVQAKGAVFSAEEVPTIGGRTGFADMRAAYDALDPAMKARIEGLNAYHSLHYSQGRVGHQTKKSDGEYSGYGLHDGPVPLRPLVKTHPETGRKSLLAGRHAHNIPGLAQEESDRLLRELIDFACQPPRIYHHDWTPGEAVVWDNRCLMHQATPWDMTQRRIMWHSRIAGDPASESARPQP", "reportedMeasurement": "Yes"}
{"molecule": "QYD35: AAD-like enzyme, SEQ ID NO. 69 (protein, Synthetic polypeptide, QYD35, D35) MSARPFTVEPLPATFGARITGLDLAALDDATFAALYDAWLEYALLIFPGAGLSTAEQVTFARRFGDMEFDIAPLSNVRKDGSLRADDGTDDVVKVLRGNMGWHADSTYMPVQAKGAVFSAHVVPEEGGETGWADMRAAYDALDDDLRRRIEGLSAHHSLVHSQARLGHAHGTDSEYSGYGFHDEAPLRPLVKVHPETGRRSLLIGRHAYGIPGLEETASERLLDELVDFACRPPRVYHHRWQVGDVVLWDNRCLLHRACPWDMSRPRVMYHSRIAGDPVTEAGLAGQSEQPSASGS", "reportedMeasurement": "NO"}
